measurement.target: Serine/threonine-protein phosphatase 5 (Rattus norvegicus, UniProt P53042)
Sequence (P53042 whole entry): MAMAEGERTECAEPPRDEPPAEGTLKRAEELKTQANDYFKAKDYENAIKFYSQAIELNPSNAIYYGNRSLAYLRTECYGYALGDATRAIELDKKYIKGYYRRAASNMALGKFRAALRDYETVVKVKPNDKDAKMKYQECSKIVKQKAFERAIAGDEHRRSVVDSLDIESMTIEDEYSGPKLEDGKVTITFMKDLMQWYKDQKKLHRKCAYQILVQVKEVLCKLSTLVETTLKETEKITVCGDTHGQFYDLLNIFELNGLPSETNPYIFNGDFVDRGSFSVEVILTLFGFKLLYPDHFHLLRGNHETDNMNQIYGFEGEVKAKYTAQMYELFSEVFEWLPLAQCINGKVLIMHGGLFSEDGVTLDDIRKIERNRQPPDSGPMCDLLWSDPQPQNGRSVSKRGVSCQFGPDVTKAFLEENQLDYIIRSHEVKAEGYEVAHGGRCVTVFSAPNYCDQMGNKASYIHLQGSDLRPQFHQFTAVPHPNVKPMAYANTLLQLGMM
observation.type: pKd
pKd here: minus log base 10 of the concentration, concentration in moles per litre.

Challenge: What does the record list as pKd for COc1ccc(-c2nc(Cc3ccc(Cl)cc3)no2)cc1OC ?
Response given: 5.11

* * *

run.description: Inhibition of PP1 (unknown origin) phosphatase domain
Parameters: species or system Homo sapiens
Starred links: 1 amine or outer side, 2 acyl side, 3 side chain; linkers in the order of their positions; H or OH if unused. Positions of bridges follow the written chain, without caps; N, C: chain ends. Non-standard residues stand in square brackets, D forms with d. Residues, ends and D or L forms follow the SMILES beside them. Adda = CO[C@@H](Cc1ccccc1)[C@@H](C)/C=C(C)/C=C/[C@H](N[*:1])[C@H](C)C(=O)[*:2]; dAsp(3S-Me) = C[C@H](C(=O)[*:3])[C@@H](N[*:1])C(=O)[*:2]; d(γGlu) = O=C(O)[C@@H](CCC(=O)[*:2])N[*:1]; NMeDha = C=C(NC)C(=O)O
Provide the recorded IC50 for the entries that follow.
Record the value in nM, omitting the unit from your answer.

Challenge: // lookup IC50 for C=C1C(=O)N[C@H](C)C(=O)N[C@@H](CC(C)C)C(=O)N[C@@H](C(=O)O)[C@H](C)C(=O)N[C@@H](CCCNC(=N)N)C(=O)N[C@@H](/C=C/C(C)=C/[C@H](C)[C@H](Cc2ccccc2)OC)[C@H](C)C(=O)N[C@@H](C(=O)O)CCC(=O)N1C [MICROCYSTIN-LR] (R[Adda][d(γGlu)][NMeDha][dA]L[dAsp(3S-Me)]-OH; lactam N-7)
Response given: 1.7

Challenge: Can you check C[C@@]12C(=O)OC(=O)[C@]1(C)[C@H]1CC[C@@H]2O1 next?
Response given: 1700

Challenge: Another molecule: CN1CCN(C(=O)[C@H]2[C@@H](C(=O)O)[C@@H]3CC[C@H]2O3)CC1
Response given: 2.4
